meta.source: patent US20170210751A1

# Tested on: Z-138 cell line
# procedure details: Z-138 Proliferation Assay (Cell Titer Glo)
# Assay type: cell-based
# measurement parameters: Homo sapiens, 120 h; Z-138 cells, 5 days incubation, ATP (Cell Titer Glo)
readout name: EC50

• CC(=O)N1CCC(Nc2cc(C(=O)NC[C@H](O)CN3CCc4nc(N)sc4C3)ccn2)CC1 [Compound 1-35] = > 5 µM
• O=C(COc1cccc2cccnc12)NCC(O)CN1CCc2nc[nH]c2C1 (centres unmarked) [Compound 3-10] = > 5 µM

# ---- query molecule ----
Short answer please: EC50, Z-138 cell line, entry CC(=O)N1CCC(Nc2cc(C(=O)NC[C@H](O)CN3CCc4ncn(C)c4C3)ncn2)CC1 [Compound 3-30]
> 5 µM
